Target: T1, TNFR1 (Homo sapiens, UniProt P19438)
T1 chain: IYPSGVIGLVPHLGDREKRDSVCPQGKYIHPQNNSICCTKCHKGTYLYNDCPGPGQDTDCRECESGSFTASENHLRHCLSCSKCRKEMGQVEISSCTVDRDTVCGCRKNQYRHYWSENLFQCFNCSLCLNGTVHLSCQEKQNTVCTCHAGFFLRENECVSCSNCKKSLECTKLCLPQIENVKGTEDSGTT
Assay: yeast display SC50
observable: apparent Kd (screen) (nM)

[
  {
    "binder": "L3I (designed binder) MTIQELLREEALRRAEAEAFRYALELLAEKFPEQKEYLLDLAEEIESQIRSLSGVDVEDVRKFLDKEWAWVKELLAEHPAELAEVEAARAARLAELRAEVEAKVAA",
    "observable": "apparent Kd (screen)",
    "measure-unit": "nM",
    "val": 0.539
  }
]

(a) W68H (designed binder) MTLQELLREEALRRAEAEAFRYALELLAEKFPEQKEYLLDLAEEIESQIRSLSGVDVEDVRKFLDKEHAWVKELLAEHPAELAEVEAARAARLAELRAEVEAKVAA
(b) K103P (designed binder) MTLQELLREEALRRAEAEAFRYALELLAEKFPEQKEYLLDLAEEIESQIRSLSGVDVEDVRKFLDKEWAWVKELLAEHPAELAEVEAARAARLAELRAEVEAPVAA
(c) E9D (designed binder) MTLQELLRDEALRRAEAEAFRYALELLAEKFPEQKEYLLDLAEEIESQIRSLSGVDVEDVRKFLDKEWAWVKELLAEHPAELAEVEAARAARLAELRAEVEAKVAA
Q) Put the items in sequence by apparent Kd (screen), from largest down. Would you mind listing the labels in the order asked for?
A) a, c, b
